- experimental-target: TcPKr-A (Tribolium castaneum)
- assay-name: Aequorin luminescence (calcium mobilization) assay, CHO cells transiently expressing TcPKr-A
- Assay type: cell-based
- setup-conditions: EC50 (bound given in μM), Fig. 3; above highest tested concentration 10 μM
Where no end group is shown, it is not given here.
recorded-endpoint: EC50

substance: NKLASVYALTPSLRV-NH2 [CAPA-1]
obs-value: > 10 µM
//
substance: RIGKMVSFPRI-NH2 [CAPA-2]
obs-value: > 10 µM

* * *

// reported EC50 per item
- experimental-target: TcPKr-A (Tribolium castaneum, UniProt A0ACM8QKC5)
- Sequence (A0ACM8QKC5 1-530): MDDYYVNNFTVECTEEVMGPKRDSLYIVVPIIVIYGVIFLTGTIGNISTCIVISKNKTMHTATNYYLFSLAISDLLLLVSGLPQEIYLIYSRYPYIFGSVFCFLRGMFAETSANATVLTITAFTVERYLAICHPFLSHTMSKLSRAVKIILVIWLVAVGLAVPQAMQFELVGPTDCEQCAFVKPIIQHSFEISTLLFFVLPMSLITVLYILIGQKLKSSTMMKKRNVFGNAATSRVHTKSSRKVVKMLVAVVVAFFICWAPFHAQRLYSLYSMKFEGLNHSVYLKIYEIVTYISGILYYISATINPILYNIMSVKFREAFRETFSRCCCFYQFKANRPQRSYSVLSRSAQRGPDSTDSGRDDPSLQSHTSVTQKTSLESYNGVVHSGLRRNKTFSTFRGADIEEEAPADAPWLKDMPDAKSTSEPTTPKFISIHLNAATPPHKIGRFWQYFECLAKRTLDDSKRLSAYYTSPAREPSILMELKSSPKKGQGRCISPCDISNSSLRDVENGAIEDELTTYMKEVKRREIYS
- assay-name: Aequorin luminescence (calcium mobilization) assay, CHO cells transiently expressing TcPKr-A
- Assay type: cell-based
- setup-conditions: Supplementary data 1, fitted value incl. extrapolations beyond 10 μM; unit inferred, nM by Fig. 3; read-out: EC50s
Where no end group is shown, it is not given here.

substance: HSSPFSPRL-NH2 [PK2/PBAN-3]
units-label: nM
EC50: 7.7

substance: FFMKASKSVPRI-NH2 [ETH-2]
units-label: nM
EC50: 6300

substance: NKLASVYALTPSLRV-NH2 [CAPA-1]
units-label: nM
EC50: 30700

substance: PGANSGGMWFGPRL-NH2 [PK1/DH-1]
units-label: nM
EC50: 6.2

substance: ENYVLKAAKNVPRI-NH2 [ETH-1]
units-label: nM
EC50: 9840

substance: TPHESSVPNERNDDSKETYFWFGPRL-NH2 [PK1/DH-2]
units-label: nM
EC50: 92.6

substance: HVVNFTPRL-NH2 [PK2/PBAN-1]
units-label: nM
EC50: 21

substance: SPPFAPRL-NH2 [PK2/PBAN-2]
units-label: nM
EC50: 17.5

substance: RIGKMVSFPRI-NH2 [CAPA-2]
units-label: nM
EC50: 12800

* * *

- experimental-target: TcPKr-C (Tribolium castaneum, UniProt A0ACM8QKC4)
- Sequence (A0ACM8QKC4 1-483): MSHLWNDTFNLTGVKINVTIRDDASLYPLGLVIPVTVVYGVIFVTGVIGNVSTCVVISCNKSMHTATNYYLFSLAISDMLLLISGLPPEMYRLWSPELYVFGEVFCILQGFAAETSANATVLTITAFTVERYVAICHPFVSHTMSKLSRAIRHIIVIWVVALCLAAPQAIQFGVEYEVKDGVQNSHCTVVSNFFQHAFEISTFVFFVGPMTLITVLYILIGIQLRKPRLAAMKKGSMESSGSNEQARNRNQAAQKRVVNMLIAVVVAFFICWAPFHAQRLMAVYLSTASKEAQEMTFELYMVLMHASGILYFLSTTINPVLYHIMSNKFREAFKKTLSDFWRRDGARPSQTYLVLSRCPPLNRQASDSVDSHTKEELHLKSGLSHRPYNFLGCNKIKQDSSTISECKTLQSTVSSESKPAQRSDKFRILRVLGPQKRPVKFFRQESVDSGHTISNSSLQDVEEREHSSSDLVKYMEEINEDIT
- assay-name: Aequorin luminescence (calcium mobilization) assay, CHO cells transiently expressing TcPKr-C
- Assay type: cell-based
- setup-conditions: Supplementary data 1, fitted value incl. extrapolations beyond 10 μM; unit inferred, nM by Fig. 3; read-out: EC50s
Where no end group is shown, it is not given here.
// reported EC50 per item

substance: HVVNFTPRL-NH2 [PK2/PBAN-1]
units-label: nM
EC50: 1.4
//
substance: SPPFAPRL-NH2 [PK2/PBAN-2]
units-label: nM
EC50: 13
//
substance: TPHESSVPNERNDDSKETYFWFGPRL-NH2 [PK1/DH-2]
units-label: nM
EC50: 576
//
substance: FFMKASKSVPRI-NH2 [ETH-2]
units-label: nM
EC50: 502000
//
substance: HSSPFSPRL-NH2 [PK2/PBAN-3]
units-label: nM
EC50: 1

* * *

- experimental-target: TcCAPAr (Tribolium castaneum, UniProt A0A0A7H7W3)
- Sequence (A0A0A7H7W3 1-418): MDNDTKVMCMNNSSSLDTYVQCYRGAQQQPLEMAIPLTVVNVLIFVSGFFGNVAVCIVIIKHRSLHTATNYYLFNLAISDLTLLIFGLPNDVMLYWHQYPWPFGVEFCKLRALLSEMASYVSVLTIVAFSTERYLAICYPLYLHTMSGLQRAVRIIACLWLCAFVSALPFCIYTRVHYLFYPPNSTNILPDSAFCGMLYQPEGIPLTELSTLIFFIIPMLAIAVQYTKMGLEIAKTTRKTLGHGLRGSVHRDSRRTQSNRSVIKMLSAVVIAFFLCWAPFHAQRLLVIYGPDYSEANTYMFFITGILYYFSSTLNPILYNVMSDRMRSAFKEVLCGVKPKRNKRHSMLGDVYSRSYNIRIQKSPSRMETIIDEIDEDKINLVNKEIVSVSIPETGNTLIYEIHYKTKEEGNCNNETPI
- assay-name: Aequorin luminescence (calcium mobilization) assay, CHO cells transiently expressing TcCAPAr
- Type: cell-based
- setup-conditions: Supplementary data 1, fitted value incl. extrapolations beyond 10 μM; unit inferred, nM by Fig. 3; read-out: EC50s
- Experimental: We characterized all PRXamide GPCRs through assays of 9 endogenous ligands. Ligand activities were quantified by detection of luminescence responses from CHO cells transiently transfected with GPCR (see Methods and Materials section for details). […] cDNAs for full GPCR ORFs were inserted into the expression vector pcDNA3.1(+) (Invitrogen) or pcDNA5/FRT (Invitrogen). […] The luminescence caused by the intracellular calcium mobilization were measured in continuous 20 seconds in every half-second interval. […]
Where no end group is shown, it is not given here.

substance: PGANSGGMWFGPRL-NH2 [PK1/DH-1]
experimental-target: TcCAPAr (Tribolium castaneum, UniProt A0A0A7H7W3)
EC50: 1070 nM
--
substance: RIGKMVSFPRI-NH2 [CAPA-2]
experimental-target: TcCAPAr (Tribolium castaneum, UniProt A0A0A7H7W3)
EC50: 5.8 nM
--
substance: HVVNFTPRL-NH2 [PK2/PBAN-1]
experimental-target: TcCAPAr (Tribolium castaneum, UniProt A0A0A7H7W3)
EC50: 16100 nM
--
substance: HSSPFSPRL-NH2 [PK2/PBAN-3]
experimental-target: TcCAPAr (Tribolium castaneum, UniProt A0A0A7H7W3)
EC50: 36600 nM
--
substance: TPHESSVPNERNDDSKETYFWFGPRL-NH2 [PK1/DH-2]
experimental-target: TcCAPAr (Tribolium castaneum, UniProt A0A0A7H7W3)
EC50: 1070 nM
--
substance: SPPFAPRL-NH2 [PK2/PBAN-2]
experimental-target: TcCAPAr (Tribolium castaneum, UniProt A0A0A7H7W3)
EC50: 6970 nM
--
substance: ENYVLKAAKNVPRI-NH2 [ETH-1]
experimental-target: TcCAPAr (Tribolium castaneum, UniProt A0A0A7H7W3)
EC50: 150 nM
--
substance: FFMKASKSVPRI-NH2 [ETH-2]
experimental-target: TcCAPAr (Tribolium castaneum, UniProt A0A0A7H7W3)
EC50: 88.8 nM

* * *

- experimental-target: TcPKr-B (Tribolium castaneum, UniProt A0A0A7H8P0)
- Sequence (A0A0A7H8P0 1-560): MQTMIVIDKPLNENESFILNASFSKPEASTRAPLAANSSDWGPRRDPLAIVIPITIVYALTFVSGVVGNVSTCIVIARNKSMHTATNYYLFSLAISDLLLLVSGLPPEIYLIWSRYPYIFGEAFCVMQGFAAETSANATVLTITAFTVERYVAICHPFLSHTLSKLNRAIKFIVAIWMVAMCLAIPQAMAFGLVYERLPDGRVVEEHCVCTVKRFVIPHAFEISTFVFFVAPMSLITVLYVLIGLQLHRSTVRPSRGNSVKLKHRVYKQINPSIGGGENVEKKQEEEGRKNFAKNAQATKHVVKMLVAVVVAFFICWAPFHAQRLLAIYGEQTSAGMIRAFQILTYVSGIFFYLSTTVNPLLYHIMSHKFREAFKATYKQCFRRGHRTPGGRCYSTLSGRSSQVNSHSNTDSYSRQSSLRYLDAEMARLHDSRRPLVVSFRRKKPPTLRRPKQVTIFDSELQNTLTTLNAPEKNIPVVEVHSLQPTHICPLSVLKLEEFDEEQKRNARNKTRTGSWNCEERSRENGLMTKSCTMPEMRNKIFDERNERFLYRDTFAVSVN
- assay-name: Aequorin luminescence (calcium mobilization) assay, CHO cells transiently expressing TcPKr-B
- Format: cell-based
- setup-conditions: Supplementary data 1, fitted value incl. extrapolations beyond 10 μM; unit inferred, nM by Fig. 3; read-out: EC50s
Where no end group is shown, it is not given here.

substance: SPPFAPRL-NH2 [PK2/PBAN-2]
experimental-target: TcPKr-B (Tribolium castaneum, UniProt A0A0A7H8P0)
EC50 / nM: 3.2

substance: FFMKASKSVPRI-NH2 [ETH-2]
experimental-target: TcPKr-B (Tribolium castaneum, UniProt A0A0A7H8P0)
EC50 / nM: 21800

substance: ENYVLKAAKNVPRI-NH2 [ETH-1]
experimental-target: TcPKr-B (Tribolium castaneum, UniProt A0A0A7H8P0)
EC50 / nM: 120000

substance: RIGKMVSFPRI-NH2 [CAPA-2]
experimental-target: TcPKr-B (Tribolium castaneum, UniProt A0A0A7H8P0)
EC50 / nM: 62500

substance: HSSPFSPRL-NH2 [PK2/PBAN-3]
experimental-target: TcPKr-B (Tribolium castaneum, UniProt A0A0A7H8P0)
EC50 / nM: 28.7

substance: NKLASVYALTPSLRV-NH2 [CAPA-1]
experimental-target: TcPKr-B (Tribolium castaneum, UniProt A0A0A7H8P0)
EC50 / nM: 338000

substance: HVVNFTPRL-NH2 [PK2/PBAN-1]
experimental-target: TcPKr-B (Tribolium castaneum, UniProt A0A0A7H8P0)
EC50 / nM: 11.9

substance: TPHESSVPNERNDDSKETYFWFGPRL-NH2 [PK1/DH-2]
experimental-target: TcPKr-B (Tribolium castaneum, UniProt A0A0A7H8P0)
EC50 / nM: 65.8

substance: PGANSGGMWFGPRL-NH2 [PK1/DH-1]
experimental-target: TcPKr-B (Tribolium castaneum, UniProt A0A0A7H8P0)
EC50 / nM: 161

* * *

- experimental-target: TcCAPAr (Tribolium castaneum, UniProt A0A0A7H7W3)
- assay-name: Aequorin luminescence (calcium mobilization) assay, CHO cells transiently expressing TcCAPAr
- Format: cell-based
- setup-conditions: EC50 [nM], Fig. 3; CHO cells with aequorin and G-α16, logistic fit, ligand 0.01 nM to 10 μM, average of three independent experiments
Where no end group is shown, it is not given here.
recorded-endpoint: EC50 (nM)

substance: PGANSGGMWFGPRL-NH2 [PK1/DH-1]
experimental-target: TcCAPAr (Tribolium castaneum, UniProt A0A0A7H7W3)
units-label: nM
obs-value: 6970

substance: SPPFAPRL-NH2 [PK2/PBAN-2]
experimental-target: TcCAPAr (Tribolium castaneum, UniProt A0A0A7H7W3)
units-label: nM
obs-value: 1070
